// provenance: patent US20160311887A1

Molecular target: T1, activated Protein C (APC) (human, UniProt P04070 43-197; P04070 212-461)
T1 construct: also called human plasma APC
T1 sequence (P04070 43-197, chain 1 of 2): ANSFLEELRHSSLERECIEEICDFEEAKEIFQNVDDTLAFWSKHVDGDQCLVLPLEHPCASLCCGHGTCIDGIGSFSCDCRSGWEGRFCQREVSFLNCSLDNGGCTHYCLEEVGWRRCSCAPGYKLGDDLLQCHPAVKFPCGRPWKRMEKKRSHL
T1 sequence (P04070 212-461, chain 2 of 2): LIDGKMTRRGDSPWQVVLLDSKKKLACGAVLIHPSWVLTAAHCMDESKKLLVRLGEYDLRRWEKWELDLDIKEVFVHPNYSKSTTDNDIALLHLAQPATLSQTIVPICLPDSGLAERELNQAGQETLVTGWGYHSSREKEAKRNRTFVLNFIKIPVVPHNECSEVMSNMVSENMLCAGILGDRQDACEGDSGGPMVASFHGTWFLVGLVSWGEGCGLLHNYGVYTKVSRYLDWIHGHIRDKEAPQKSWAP
Test: ratio of rate constants, APC over thrombin
Quantity Measured: inhibition of APC/thrombin (fold)
Express your answer in fold, writing the number without its unit.

Prompt: State the recorded inhibition of APC/thrombin for this entry: FL α1AT Pitts C232S P2TP1′N (other, E. coli, purified; also called 4.G9) SDPQGDAAQKTDTSHHDQDHPTFNKITPNLAEFAFSLYRQLAHQSNSTNIFFSPVSIATAFAMLSLGTKADTHDEILEGLNFNLTEIPEAQIHEGFQELLRTLNQPDSQLQLTTGNGLFLSEGLKLVDKFLEDVKKLYHSEAFTVNFGDTEEAKKQINDYVEKGTQGKIVDLVKELDRDTVFALVNYIFFKGKWERPFEVKDTEEEDFHVDQVTTVKVPMMKRLGMFNIQHSKKLSSWVLLMKYLGNATAIFFLPDEGKLQHLENELTHDIITKFLENEDRRSASLHLPKLSITGTYDLKSVLGQLGITKVFSNGADLSGVTEEAPLKLSKAVHKAVLTIDEKGTEAAGAMFLEAITRNIPPEVKFNKPFVFLMIEQNTKSPLFMGKVVNPTQK
Response: 231
